Recorded measurements of IC50, one per entry
Target: KRAS G12V (Homo sapiens (Human), UniProt P01116+P62937, G12V)
Sequence (P01116 other isoform, or with tags, fused parts or gaps G12V, one chain of several): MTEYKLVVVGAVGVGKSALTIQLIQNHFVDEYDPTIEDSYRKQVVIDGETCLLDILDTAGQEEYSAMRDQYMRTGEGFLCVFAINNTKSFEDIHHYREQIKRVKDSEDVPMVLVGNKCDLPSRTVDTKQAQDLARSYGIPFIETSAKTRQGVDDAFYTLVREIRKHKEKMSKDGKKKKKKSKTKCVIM
Test: Ras-Raf disruption/FRET/MOA assay (BRAF RBD, Cyclophilin A)
Format: biochemical
Conditions: read-out: KRAS G12V FRET IC50

Recorded IC50, per entry:
query_smiles=CCn1c(-c2cccnc2[C@H](C)OC)c2c3cc(ccc31)-c1csc(n1)C[C@H](NC(=O)[C@H](C(C)C)N(C)C(=O)N(C)[C@@H]1CCN(C)C1)C(=O)N1CCC[C@H](N1)C(=O)OCC(C)(C)C2 result="100 to 1000 nM"
query_smiles=CCn1c(-c2cccnc2[C@H](C)OC)c2c3cc(ccc31)-c1csc(n1)C[C@H](NC(=O)[C@H](C(C)C)N(C)C(=O)N1C[C@@H]3OCCN(C)[C@@H]3C1)C(=O)N1CCC[C@H](N1)C(=O)OCC(C)(C)C2 result="100 to 1000 nM"
query_smiles=CCn1c(-c2cccnc2[C@H](C)OC)c2c3cc(ccc31)-c1csc(n1)C[C@H](NC(=O)[C@H](C(C)C)N(C)C(=O)N1CC([C@@H](C)OC)C1)C(=O)N1CCC[C@H](N1)C(=O)OCC(C)(C)C2 result="10 to 100 nM"

Recall the recorded IC50 for CCn1c(-c2cccnc2[C@H](C)OC)c2c3cc(ccc31)-c1csc(n1)C[C@H](NC(=O)[C@@H]1CCO1)C(=O)N1CCC[C@H](N1)C(=O)OCC(C)(C)C2 with KRAS G12V (Homo sapiens (Human), UniProt P01116+P62937, G12V) and state it.
100 to 1000 nM

Recall the recorded IC50 for CCn1c(-c2cccnc2[C@H](C)OC)c2c3cc(ccc31)-c1cc(O)cc(c1)C[C@H](NC(=O)[C@H](C(C)C)N(C)C(=O)C1CNCCNC1)C(=O)N1CCC[C@H](N1)C(=O)OCC(C)(C)C2 with KRAS G12V (Homo sapiens (Human), UniProt P01116+P62937, G12V) and state it.
1000 to 10000 nM

###

Recorded measurements of pIC50, one per entry
Target: NRAS G12C (Homo sapiens (Human), UniProt P01111+P62937, G12C)
Sequence (P01111 whole entry G12C): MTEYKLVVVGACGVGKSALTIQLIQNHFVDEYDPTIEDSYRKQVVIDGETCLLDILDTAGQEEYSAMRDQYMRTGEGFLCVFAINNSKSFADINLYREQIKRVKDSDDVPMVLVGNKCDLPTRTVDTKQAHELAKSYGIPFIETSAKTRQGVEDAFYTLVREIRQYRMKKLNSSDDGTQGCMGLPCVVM
Sequence (P62937 whole entry): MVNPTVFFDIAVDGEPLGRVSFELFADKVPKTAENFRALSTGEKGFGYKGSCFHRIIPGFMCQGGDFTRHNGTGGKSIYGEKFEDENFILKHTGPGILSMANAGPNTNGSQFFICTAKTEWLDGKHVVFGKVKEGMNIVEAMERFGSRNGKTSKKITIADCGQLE
Test: Ras-Raf disruption/FRET/MOA assay (BRAF RBD, Cyclophilin A)
Assay type: biochemical
Conditions: read-out: NRAS G12C FRET data IC50
pIC50: −log10 of the molar value.

query_smiles=CCn1c(-c2cccnc2[C@H](C)OC)c2c3cc(ccc31)-c1csc(n1)C[C@H](NC(=O)[C@H](C(C)C)N(C)C(=O)N(C)C[C@H]1CCCN1C)C(=O)N1CCC[C@H](N1)C(=O)OCC(C)(C)C2 subject_of_test="NRAS G12C (Homo sapiens (Human), UniProt P01111+P62937, G12C)" measured_metric=pIC50 result="6.00 to 7.00"

// moving on: another record for pIC50
Return reported pIC50; argument: CCn1c(-c2cccnc2[C@H](C)OC)c2c3cc(ccc31)-c1csc(n1)C[C@H](NC(=O)[C@H](C(C)C)N(C)C(=O)N1CC[C@@]13CCCN(C)C3)C(=O)N1CCC[C@H](N1)C(=O)OCC(C)(C)C2
6.00 to 7.00

###

Recorded measurements of IC50, one per entry
Tested on: Capan-1 cells (K-Ras G12V)
Assay: CellTiter-Glo cell viability, Capan-1
Assay type: cell-based, human
Conditions: Homo sapiens, CAPAN-1, 120 h, read-out: Capan-1 Cell Viability IC50

compound=CCn1c(-c2cccnc2[C@H](C)OC)c2c3cc(ccc31)-c1csc(n1)C[C@H](NC(=O)[C@H](C(C)C)N(C)C(=O)N1CC3CC(C1)O3)C(=O)N1CCC[C@H](N1)C(=O)OCC(C)(C)C2 result="100 to 1000 nM"
compound=CCn1c(-c2cccnc2[C@H](C)OC)c2c3cc(ccc31)-c1cc(O)cc(c1)C[C@H](NS(=O)(=O)CC1CC1)C(=O)N1CCC[C@H](N1)C(=O)OCC(C)(C)C2 result="1000 to 10000 nM"
compound=CCn1c(-c2cccnc2[C@H](C)OC)c2c3cc(ccc31)-c1csc(n1)C[C@H](NC(=O)[C@H](C(C)C)N(C)C(=O)N1CCC[C@H](N(C)C)C1)C(=O)N1CCC[C@H](N1)C(=O)OCC(C)(C)C2 result="10 to 100 nM"
compound=CCn1c(-c2cccnc2[C@H](C)OC)c2c3cc(ccc31)-c1cc(O)cc(c1)C[C@H](NC(=O)N1CCOCC1)C(=O)N1CCC[C@H](N1)C(=O)OCC(C)(C)C2 result="> 10000 nM"
compound=CCn1c(-c2cccnc2[C@H](C)OC)c2c3cc(ccc31)-c1csc(n1)C[C@H](NC(=O)[C@H](C(C)C)N(C)C(=O)N1C3COCC1C3)C(=O)N1CCC[C@H](N1)C(=O)OCC(C)(C)C2 result="10 to 100 nM"
compound=CCn1c(-c2cccnc2[C@H](C)OC)c2c3cc(ccc31)-c1csc(n1)[C@@H](OC)[C@H](NC(=O)[C@H](C(C)C)N(C)C(=O)N(C)C)C(=O)N1CCC[C@H](N1)C(=O)OCC(C)(C)C2 result="100 to 1000 nM"

Return reported IC50; argument: CCn1c(-c2cccnc2[C@H](C)OC)c2c3cc(ccc31)-c1cc(cc(C(F)F)c1)C[C@H](NC(=O)[C@H](C(C)C)N(C)C(=O)[C@@H]1OCC[C@@H]1c1ccccc1)C(=O)N1CCC[C@H](N1)C(=O)OCC(C)(C)C2
1000 to 10000 nM

Return reported IC50; argument: CCn1c(-c2cccnc2[C@H](C)OC)c2c3cc(ccc31)-c1csc(n1)C[C@H](NC(=O)[C@H](C(C)C)N(C)C(=O)N1CC(S(=O)(=O)N(C)C)C1)C(=O)N1CCC[C@H](N1)C(=O)OCC(C)(C)C2
10 to 100 nM

Return reported IC50; argument: CCn1c(-c2cccnc2[C@H](C)OC)c2c3cc(ccc31)-c1cc(O)cc(c1)C[C@H](NS(=O)(=O)c1ccc(OC)cc1OC)C(=O)N1CCC[C@H](N1)C(=O)OCC(C)(C)C2
> 10000 nM

Return reported IC50; argument: CCn1c(-c2cccnc2[C@H](C)OC)c2c3cc(ccc31)-c1cc(O)cc(c1)C[C@H](NC(=O)[C@H](C(C)C)N(C)C(=O)C1CCC(C(F)(F)F)O1)C(=O)N1CCC[C@H](N1)C(=O)OCC(C)(C)C2 (some centres unmarked)
1000 to 10000 nM

Return reported IC50; argument: CCn1c(-c2cccnc2[C@H](C)OC)c2c3cc(ccc31)-c1csc(n1)C[C@H](NC(=O)[C@H](C(C)C)N(C)C(=O)[C@H]1CCN(S(C)(=O)=O)C1)C(=O)N1CCC[C@H](N1)C(=O)OCC(C)(C)C2
1000 to 10000 nM

###

Biological target: NRAS Q61K (Homo sapiens (Human), UniProt P01111+P62937, Q61K)
Sequence (P01111 whole entry Q61K, one chain of several): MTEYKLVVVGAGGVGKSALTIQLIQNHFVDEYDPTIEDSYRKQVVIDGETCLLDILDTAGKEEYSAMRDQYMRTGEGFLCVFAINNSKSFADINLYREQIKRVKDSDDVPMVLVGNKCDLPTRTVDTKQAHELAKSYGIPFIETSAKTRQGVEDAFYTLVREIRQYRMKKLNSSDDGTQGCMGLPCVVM
Experiment: Ras-Raf disruption/FRET/MOA assay (BRAF RBD, Cyclophilin A)
Assay type: biochemical
Description: Compound is present in plate wells as a 10-point 3-fold dilution series starting at a final concentration of 30 μM. After incubation at 25° C. for 3 hours, a mixture of Anti-His Eu—W1024 and anti-GST allophycocyanin is then added to assay sample wells at final concentrations of 10 nM and 50 nM, respectively, and the reaction incubated for an additional 1.5 hours. […]
Measured metric: IC50

compound="CCn1c(-c2cc(N3CCN(C)CC3)cnc2[C@H](C)OC)c2c3cc(ccc31)-c1csc(n1)C[C@H](NC(=O)[C@H](C(C)C)N(C)C(=O)C1OCC[C@@H]1c1ccccc1)C(=O)N1CCC[C@H](N1)C(=O)OCC(C)(C)C2 (some centres unmarked)" result="100 to 1000 nM"

Return reported IC50; argument: CCn1c(-c2cccnc2[C@H](C)OC)c2c3cc(ccc31)-c1cc(O)cc(c1)C[C@H](NC(=O)[C@@H]1[C@H]3C[C@H]3CN1C(C)=O)C(=O)N1CCC[C@H](N1)C(=O)OCC(C)(C)C2
1000 to 10000 nM

###

Target: NRAS Q61K (Homo sapiens (Human), UniProt P01111+P62937, Q61K)
Test: Ras-Raf disruption/FRET/MOA assay (BRAF RBD, Cyclophilin A)
Format: biochemical
pIC50: −log10 of the molar value.
Recorded measurements of pIC50, one per entry

molecule=CCn1c(-c2cccnc2[C@H](C)OC)c2c3cc(ccc31)-c1csc(n1)C[C@H](NC(=O)[C@H](C(C)C)N(C)C(=O)N1CCCC3(CN(C)C3)C1)C(=O)N1CCC[C@H](N1)C(=O)OCC(C)(C)C2 subject_of_test="NRAS Q61K (Homo sapiens (Human), UniProt P01111+P62937, Q61K)" result="6.00 to 7.00"

Return reported pIC50; argument: CCn1c(-c2cccnc2[C@H](C)OC)c2c3cc(ccc31)-c1csc(n1)C[C@H](NC(=O)C1CC1)C(=O)N1CCC[C@H](N1)C(=O)OCC(C)(C)C2
6.00 to 7.00

Return reported pIC50; argument: CCn1c(-c2cccnc2[C@H](C)OC)c2c3cc(ccc31)-c1cc(O)cc(c1)C[C@H](NC(=O)[C@@H]1CCCCCN1C(C)=O)C(=O)N1CCC[C@H](N1)C(=O)OCC(C)(C)C2
6.00 to 7.00

Return reported pIC50; argument: CCn1c(-c2cccnc2[C@H](C)OC)c2c3cc(ccc31)-c1csc(n1)C[C@H](NC(=O)[C@H](C(C)C)N(C)C(=O)N1CC(O)(COC)C1)C(=O)N1CCC[C@H](N1)C(=O)OCC(C)(C)C2
6.00 to 7.00

Return reported pIC50; argument: CCn1c(-c2cccnc2[C@H](C)OC)c2c3cc(ccc31)-c1csc(n1)C[C@H](NC(=O)[C@H](C(C)C)N(C)C(=O)[C@H]1[C@@H]3CNC[C@@H]31)C(=O)N1CCC[C@H](N1)C(=O)OCC(C)(C)C2
5.00 to 6.00

Return reported pIC50; argument: CCn1c(-c2cccnc2[C@H](C)OC)c2c3cc(ccc31)-c1csc(n1)C[C@H](NC(=O)[C@H](C(C)C)N(C)C(=O)N1CCC1C(=O)O)C(=O)N1CCC[C@H](N1)C(=O)OCC(C)(C)C2 (stereo partly drawn)
6.00 to 7.00

Return reported pIC50; argument: CCn1c(-c2cccnc2[C@H](C)OC)c2c3cc(ccc31)-c1cc(CF)cc(c1)C[C@H](NC(=O)[C@H](C(C)C)N(C)C(=O)[C@@H]1OCC[C@@H]1c1ccccc1)C(=O)N1CCC[C@H](N1)C(=O)OCC(C)(C)C2
6.00 to 7.00
